Reported values of growth for individual entries
System: OVCAR-8 ovarian
experiment_description: NCI-60 one-dose screen, 48 h (100 = growth as untreated, 0 = no growth, -100 = all killed)
cond: 10 µM unless noted
About 83,000 compounds went through this panel and 20% of them were active in at least one assay; those are over-represented in the sample as a whole. Active and inactive are the calls of the source. How the source made its calls: active means growth percent below 10; inactive means the rest.

INSERT INTO measurements (structure, endpoint_result) VALUES
  ('Nn1c(SCC(=O)Nc2cc(Cl)c(Cl)cc2Cl)nnc1-c1cc(F)c(Cl)cc1Cl', '97.5% (inactive)');

[Q] Which growth reading was recorded for the compound O=[N+]([O-])c1ccc(NS(=O)(=O)c2cc(Cl)ccc2Cl)c2ccccc12 ?
[A] 79.5% (inactive)

[Q] Which growth reading was recorded for the compound COc1ccc2c(c1)nnn1c3ncccc3c(N=O)c21 ?
[A] -30.3% (active)

[Q] Which growth reading was recorded for the compound C[C@H]1C=C(C[C@@H](O)CC#CC#CCCCCC[C@@H](O)[C@H]2CCC(=O)O2)C(=O)O1 ?
[A] 110% (inactive)

[Q] Which growth reading was recorded for the compound CN(CCNCc1ccccn1)CCNCc1ccccn1 ?
[A] 13.5% (inactive)
